Assay: NCI Yeast Anticancer Drug Screen. Data for the bub3 strain (AID 167)
Details: S. cerevisiae bub3 mutant strain, at 50.0 µM, active compounds read high
The panel holds about 79,000 compounds, 15% with a hit somewhere; the sample as a whole holds those more often.
Exercise: state measured growth inhibition for each of the compounds provided.
All answers are understood in %, so give the number only.

Prompt: Look up growth inhibition for this compound: Brc1cc(Br)c2c(c1)CN(C1CCCCC1)CO2 (tested in a mixture with another compound)
Completion: -1.6

Prompt: Another compound to look at: `Cn1c(=O)c2[nH]c(/N=N/N3CCN(CCO)CC3)nc2n(C)c1=O`
Completion: -45.6

Prompt: Thanks! And `COC1=CC(=O)c2ccc3ccccc3c2C1=O` ?
Completion: 88.8

Prompt: Subsequent entry: `CCCN(CCC)C(=O)c1c(Cl)c2cccnc2n2c(C)cnc12`
Completion: 15.1

Prompt: Subsequent entry: `ClCCOCOc1ccc2ccccc2c1`
Completion: 26.6

Prompt: Cool, now `CN1CC(O)CN(C)C1=S`
Completion: -7.9

Prompt: Same question for CC(=O)N1c2ccccc2C2=NN(C)C(=N)SC21 (stereo not drawn) please.
Completion: -5.2

Prompt: // same read-out, input: `O=C(Nc1cc(Cl)ccc1Cl)Oc1c(Cl)cc(Cl)c(Cl)c1[N+](=O)[O-]`
Completion: -0.55

Prompt: Lookup `[O-][N+]1=CCCC1`
Completion: -0.2

Prompt: Next record, please: CCC1c2ccccc2[C@H]2C(c3ccccc3)=NN(c3ccccc3)[C@H]2N1CC (stereo partly drawn)
Completion: 1.5

Prompt: Repeat with CCSC(SCC)C(Nc1ccc([N+](=O)[O-])cc1[N+](=O)[O-])C(OC(C)=O)C(OC(C)=O)C(COC(C)=O)OC(C)=O (stereo not drawn)
Completion: -2.9

Prompt: Now the same for `CCCc1cc(C)cc(N=Cc2ccccc2)c1O`
Completion: 97

Prompt: And what about the compound `N=C(N)n1ncc(Cl)c(Cl)c1=O` ?
Completion: 38.9

Prompt: Param item: `Nc1ccn([C@@H](C=O)C[C@@H](C=O)CO)c(=O)n1`
Completion: 11.2

Prompt: Moving on to the next compound: `O=c1[nH]c2ccccc2[nH]1`
Completion: -13.2

Prompt: Also `Cc1cccc(Cl)c1OCC(=O)Nc1ccccc1` , if possible.
Completion: 58.6

Prompt: Entry to check: `CC(=O)Nc1ccc(S(=O)(=O)N/N=C/c2ccco2)cc1`
Completion: 4.1

Prompt: Let us now turn to `COC(SC)(SC)c1cc(-c2c(Cl)cccc2Cl)no1`
Completion: 27.6
